- assay system: UniProt E2QF15
- Sequence (E2QF15 whole entry): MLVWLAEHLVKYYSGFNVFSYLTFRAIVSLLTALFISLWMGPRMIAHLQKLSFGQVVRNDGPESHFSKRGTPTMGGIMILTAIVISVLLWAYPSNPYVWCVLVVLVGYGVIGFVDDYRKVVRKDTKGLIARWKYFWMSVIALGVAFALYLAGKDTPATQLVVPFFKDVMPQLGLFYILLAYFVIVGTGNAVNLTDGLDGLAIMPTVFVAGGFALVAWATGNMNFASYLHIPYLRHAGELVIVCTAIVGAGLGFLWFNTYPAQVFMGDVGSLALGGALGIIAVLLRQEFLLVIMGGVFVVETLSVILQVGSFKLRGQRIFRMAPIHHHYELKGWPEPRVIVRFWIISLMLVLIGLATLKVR
- test details: Inhibition of recombinant MraY overexpressed in Escherichia coli membranes by continuous fluorescence assay
reported endpoint: IC50 (µM)
Respond with the bare value in µM.

molecule="COc1cc(C)cc2c(-c3c(O)cc(O)c4c3C[C@@H](C)N[C@@H]4C)cc(-c3cc(-c4c(O)cc(O)c5c4C[C@@H](C)N[C@@H]5C)c4cc(C)cc(OC)c4c3O)c(O)c12 [MICHELLAMINE A]" result=456

# input for lookup
INPUT: # IC50 lookup, item O=C(O)c1c(Cl)c(Cl)c(Cl)c(Cl)c1-c1c2cc(Br)c(=O)c(Br)c-2oc2c(Br)c(O)c(Br)cc12
OUTPUT: 32

====

- test details: Inhibition of MraY in Pseudomonas aeruginosa membranes by continuous fluorescence assay
- Format: cell membranes
reported endpoint: IC50 (µM)
Give a bare numeral; the unit µM is implied.

INPUT: Name the reported IC50 value associated with the compound O=C(O)c1c(Cl)c(Cl)c(Cl)c(Cl)c1-c1c2cc(Br)c(=O)c(Br)c-2oc2c(Br)c(O)c(Br)cc12
OUTPUT: 128
